List of z-score values.
# TEST DETAILS: up-regulation of insulin promoter-GFP reporter – imaging, high-content screening, mouse beta cells (AID 1625)
# CONDITION LABEL: MIN6 insulin promoter-GFP reporter, at 5 µM; stronger effect = higher value
Hit rate of the full screen: of about 190,000 compounds, about 570 (0.3%) were called active. For the sample, actives were picked, then their nearest neighbours and some compounds at random.
READOUT NAME: z-score

• CC(C)(C)c1ccc(CCC2OCC(CN3CCOCC3)O2)cc1 (centres undefined) = -0.91
• CN(C)S(=O)(=O)c1cccc(-c2nn(-c3ccccc3)cc2/C=C2\SC(=S)N(CC(=O)O)C2=O)c1 = -0.06
• O=C(CC1Nc2ccccc2NC1=O)Nc1ccccc1NC(=O)CC1Nc2ccccc2NC1=O (centres undefined) = 0.1
• CC(C)N1CCC(NC(=O)Nc2ccccc2)CC1 = -0.24

###

# TEST DETAILS: up-regulation of insulin promoter-GFP reporter – imaging, high-content screening, mouse beta cells (AID 1625)
# CONDITION LABEL: MIN6 insulin promoter-GFP reporter, at 5 µM; stronger effect = higher value
Among all 190,000 compounds or so, about 570 (0.3%) were called active. The list comes from a sample in which actives are over-represented; it also holds close analogues and randomly drawn compounds.
List of z-score values.
READOUT NAME: z-score

- CCN(CC)CCNCC(=O)Nc1ccc(Oc2ccccc2)cc1: -0.39
- COc1ccc(OC)c(-c2c(=O)n(OCc3ccccc3Br)c3ccccc3[n+]2[O-])c1: -0.44
- COc1ccc(C(=O)C2CCCN(C(=O)c3cc4nc(C)cc(C)n4n3)C2)cc1F (stereo not drawn): -0.02

###

# TEST DETAILS: up-regulation of insulin promoter-GFP reporter – imaging, high-content screening, mouse beta cells (AID 1625);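 for cell count: total cells summed across four imaged fields per well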
# CONDITION LABEL: MIN6 insulin promoter-GFP reporter, at 5 µM; measured here: cytotoxicity, nuclei count
Screen size: about 190,000 compounds; about 570 (0.3%) were called active. Many of the other results were omitted from the sample, so actives are more common in it than they were.
List of cell count values.
READOUT NAME: cell count (cells)

* CCOc1ccc(C2C(C(=O)O)c3ccccc3C(=O)N2CCN2CCOCC2)cc1 (centres undefined) | 1350
* COC(=O)c1cc(C)sc1NC(=O)CC1Nc2ccccc2NC1=O (centres undefined) | 1110
* Cc1ccc(NC(=S)N2CCCC(c3ccccc3)=N2)cc1 | 1540
* CN1CCN(C(c2cc3cc4c(cc3[nH]c2=O)OCCO4)c2nnnn2C2CCCC2)CC1 (centres undefined) | 1180
* COc1ccc(C2C(C(=O)N3CCN(c4ccc(OC)cc4)CC3)c3ccccc3C(=O)N2C)cc1 (centres undefined) | 1330
* CCCN(CCC)CC(O)COc1ccccc1C(=O)Nc1ccccc1 (centres undefined) | 1020
* O=C(Cc1ccccc1)N1N=C(c2ccncc2)CC1(O)C(F)(F)F (centres undefined) | 1110
* CC(=O)Nc1nc(C)c(-c2csc(Nc3ccc(S(N)(=O)=O)cc3)n2)s1 | 1500
* COc1cccc(NCCC(=O)c2cccc([N+](=O)[O-])c2)c1 | 1430
* CN1CCN(C(=O)/C(=C\c2ccc3c(c2)OCO3)NC(=O)c2cccs2)CC1 | 1300
* O=C(NCCc1csc(-c2ccccc2)n1)c1ccccc1F | 879
* O=C(Nc1ccc(Cl)cc1)/C(=C1\CCCN1)[N+](=O)[O-] | 1400
* COc1ccc(-c2nc(CCNC(=O)c3ccc(Br)o3)cs2)cc1 | 1790
* O=C(CC1Nc2ccccc2NC1=O)Nc1ccccc1NC(=O)CC1Nc2ccccc2NC1=O (centres undefined) | 1140
* O=C(Nc1ccccc1)O/N=C1/CCCc2occc21 | 985
* Cc1ccc(C(=O)NC(=S)Nc2ccc(N3CCOCC3)cc2)cc1 | 1440
* O=S(=O)(NC(=S)Nc1ccccc1)c1ccc(F)cc1 | 1080
* CCOC(=O)C1=NN(c2ccc(Cl)cc2)/C(=C/C2=NCCc3cc(OC)c(OC)cc32)S1 | 1380
* COc1ccc(Nc2cc(=O)n(-c3ccccc3)c3c2c(=O)n(C)c(=O)n3C)cc1 | 991
* Cn1c(SCC(=O)c2ccc(F)cc2)nnc1-c1ccccn1 | 1430
* Cc1ccc(CNC(=O)CC2Sc3ccccc3NC2=O)cc1 (centres undefined) | 1420
* CC(C)CCN1CCN(C/C=C/c2ccco2)CC1CCO (centres undefined) | 1410
* CCN(CC)CCNCC(=O)Nc1ccc(Oc2ccccc2)cc1 | 919
* N/C(=N/O)c1cccn1Cc1ccccc1[N+](=O)[O-] | 1470
* COc1ccc(-c2nnn(CC(=O)N(CCO)C(C(=O)NC3CCCC3)c3ccc(F)cc3)n2)cc1 (centres undefined) | 941
* COCc1cc(=O)oc2cc(NS(=O)(=O)c3ccc(C)cc3)ccc12 | 1024
* CN(CC(=O)Nc1ccc(F)cc1)CC(=O)Nc1ccc(Cl)c(S(=O)(=O)N2CCOCC2)c1 | 1070
* CCc1cc(C(=O)OC)c(NC(=O)CC2Sc3ccc(C(F)(F)F)cc3NC2=O)s1 (centres undefined) | 1330
* COc1ccc(C(=O)C2CCCN(C(=O)c3cc4nc(C)cc(C)n4n3)C2)cc1F (centres undefined) | 1470
* COc1ccc(N2C(=O)C(Cc3ccccc3)NC2=S)cc1 (centres undefined) | 1180
* S=C(NCCc1ccccc1)N1CCn2cccc2C1c1ccncc1 (centres undefined) | 1320
* COc1cc2c(C(=O)N3CCN(C)CC3)c(CSc3ccccc3)n(C)c2cc1Br | 1290
* Cc1nn(CC2CC2)c(=O)n1N(C)c1ncc(C(F)(F)F)cc1Cl | 1660
* CCN(CC)c1ccc(C(=O)N/N=C/c2ccc(N3CCOCC3)cc2)cc1 | 1830
